Here the recorded pIC50 is given for each entry.
- system-under-test: hSK2 (Homo sapiens, UniProt Q9H2S1)
- protocol-text: Assay for compound activity towards hSK channels (86Rb+ efflux)
- reported-conditions: 86Rb+ efflux stimulated with calcium ionophore; drug 0.01 to 30 μM in EBSS; read-out: hSK2 Inhibitory Activity
pIC50: −log10 of the molar value.

The cases that follow already have their pIC50 on record.
>>> recorded_value("Cc1cnn(-c2cncc(Nc3ccc(-c4ccccc4)cn3)n2)c1")
"4.52 to 5.52"
>>> recorded_value("c1ccc(-c2cncc(Nc3ccc(-c4ccsc4)cn3)n2)nc1")
"6.00 to 7.30"
>>> recorded_value("c1ccc(-c2cncc(Nc3ccc(N4CCCCC4)cn3)n2)nc1")
"> 7.30"

What value of pIC50 has been reported for the following compound? Cn1c(Nc2cncc(-c3ccccn3)n2)nc2ccccc21
4.52 to 5.52

What value of pIC50 has been reported for the following compound? Clc1ccc(Nc2cncc(-c3cc(N4CCCC4)ccn3)n2)nc1
5.52 to 6.00
